Reported cell count is given for each of the following compounds.
- experimental details: inhibitors of TNFa-induced NFkB p65 translocation, primary screen, imaging, HUVEC, MLSMR starter and 10KST1 sets (AID 438);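 further: compound added about 3h40 before a 20 min TNFalpha stimulation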
- assay conditions: HUVEC TNFa-induced p65 nuclear translocation; measured here: nuclei count (cytotoxicity indicator), at 2.08 µM
Where a SMILES comes first, the peptide text is derived from it.
Returns: the value as a bare number; no unit string appended.

compound	parameter measured	result
Cc1nn(C)c(C)c1NC(=O)CSc1nc(Cc2ccccc2)nc2c1cnn2-c1ccccc1	cell count	360
O=c1c(CN2CCN(Cc3ccccc3)CC2)coc2ccc(Cl)cc12	cell count	463
CCCC(NC(=O)CNC(=O)C(C)(C)C)C(=O)O (stereo not given) (HELM PEPTIDE1{[CC(C)(C)C(=O)[*:2]].G.[CCCC(N[*:1])C(=O)O]}$$$$V2.0)	cell count	678
CC(O)c1c(OCc2ccccc2)ncnc1OCc1ccccc1 (stereo not given)	cell count	426

Form field cell count, entry CCOC(=O)N1CCN(C(=O)c2csc3c2CCCCC3)CC1 : 775

Form field cell count, entry COc1ccc2cc(CN(CCO)C(=O)c3ccccc3F)c(=O)[nH]c2c1 : 474

Form field cell count, entry CCc1ccccc1NC(=O)c1cnc2n(c1=O)CCS2 : 582

Form field cell count, entry COc1cccc(OCC(=O)Nc2ccccc2C(N)=O)c1 : 681

Form field cell count, entry Cn1c(=O)c2c([nH]c(=O)n2C)n(C)c1=O : 364

Form field cell count, entry Cc1ccc(-n2c3c(cc(C(=O)NCCCN4CCOCC4)c2=O)C(=O)CC(C)(C)C3)cc1 : 349
